Source of measurements: the supplement of paper PMC10567573

B1: SNAP91 (parent)
chain: FSTDAFSSPPQGASPVPESSLTAD

# Variants of: B1
# method: protein stability index of a GFP-peptide fusion (GPS, HEK-293T) (PSI 1-6); higher = more stable;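 further: lentivirally expressed fusions sorted by FACS into six bins by GFP to DsRed ratio, PSI derived from sequencing read proportions per bin multiplied by bin number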
# condition_notes: c terminus: a fixed tail appended
Label Condition met when protein stability index >= 3; otherwise Condition not met.

Would you please look over these solved cases?
Determine whether this variant has protein stability index no lower than 3: `P15Y` Condition not met

Answer whether protein stability index of `S8E` is greater than or equal to 3. Condition met

Determine whether measured protein stability index meets or exceeds 3 for `P17V` Condition met

Check the entry `A23D` : does protein stability index equal or exceed 3? Condition met

Hi team, for `D24R` , is the recorded protein stability index at or above 3? Condition met

Continuing:
Check this variant for protein stability index at or above 3: `S2N` Condition met

Test whether the variant `D24T` records protein stability index of 3 or higher. Condition not met

Is protein stability index at least 3? Consider `P10T` Condition not met

Is reported protein stability index greater than or equal to 3 here: `T22G` Condition met

Check if protein stability index >= 3 (inclusive). Item: `S19F` Condition not met

Is reported protein stability index greater than or equal to 3 here: `A13D` Condition met

Is reported protein stability index greater than or equal to 3 here: `P9Y` Condition not met
